This collection of values is drawn from patent US11673898B2.

- tested-target: Menin MLL 4-43 (Homo sapiens, UniProt O00255)
- Sequence (O00255 whole entry): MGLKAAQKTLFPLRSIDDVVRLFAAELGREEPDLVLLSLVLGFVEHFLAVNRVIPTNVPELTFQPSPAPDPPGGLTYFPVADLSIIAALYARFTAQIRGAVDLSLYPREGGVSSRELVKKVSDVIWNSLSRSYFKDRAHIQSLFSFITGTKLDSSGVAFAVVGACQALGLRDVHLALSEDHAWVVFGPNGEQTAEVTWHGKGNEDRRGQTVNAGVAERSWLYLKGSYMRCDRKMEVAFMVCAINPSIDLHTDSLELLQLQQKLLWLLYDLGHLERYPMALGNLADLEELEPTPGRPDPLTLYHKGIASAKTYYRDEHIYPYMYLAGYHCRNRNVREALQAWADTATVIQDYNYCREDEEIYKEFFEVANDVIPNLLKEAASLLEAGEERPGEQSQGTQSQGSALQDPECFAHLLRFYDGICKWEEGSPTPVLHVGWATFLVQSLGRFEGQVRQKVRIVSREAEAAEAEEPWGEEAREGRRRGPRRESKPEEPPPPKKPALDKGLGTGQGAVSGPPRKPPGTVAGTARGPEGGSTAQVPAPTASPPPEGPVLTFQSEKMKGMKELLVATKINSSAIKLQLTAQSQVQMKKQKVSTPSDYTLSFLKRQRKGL
- assay-explanation: Fluorescence polarization (FP) competition assay of the menin-MLL interaction
- Type: binding
- test-context: fluorescence polarization assay; read-out: Menin MLL 4-43 IC50
pIC50: −log10 of the molar value.
Would you mind telling me the reported pIC50 of each entry?

pIC50 for "Cc1nc(NC2CCN(Cc3ccc4c(cc(C#N)n4C[C@H](C)N4CCN(S(=O)(=O)CF)CC4)c3C)CC2)c2cc(CC(F)(F)F)sc2n1" ?
6.60 to 7.30

Same read-out for "Cc1c(CN2CCC(Nc3ncnc4sc(CC(F)(F)F)cc34)CC2)ccc2c1cc(C#N)n2CC1(N2CCN(S(C)(=O)=O)CC2)CC1" ?
6.60 to 7.30

Same read-out for Cc1c(CN2CCC(Nc3ncnc4sc(CC(F)(F)F)cc34)CC2)ccc2c1cc(C#N)n2CC(C)N1CCN(S(C)(=O)=O)[C@@H](C)C1 (stereo partly drawn) ?
> 7.30

----------
- tested-target: Menin MLL 4-43 (Homo sapiens, UniProt O00255)
- assay-explanation: Fluorescence polarization (FP) competition assay of the menin-MLL interaction
- Assay type: binding
- test-context: fluorescence polarization assay; read-out: Menin MLL 4-43 IC50
pIC50: −log10 of the molar value.
value-type: pIC50

pIC50 for "Cc1nc(NC2CCN(Cc3ccc4c(cc(C#N)n4C[C@H](C)N4CCN(S(C)(=O)=O)CC4)c3C)CC2)c2c(C)c(CC(F)(F)F)sc2n1" ?
< 6.00

Same read-out for "CNS(=O)(=O)C1CCN([C@@H](C)Cn2c(C#N)cc3c(C)c(CN4CCC(Nc5nc(C)nc6sc(CC(F)(F)F)cc56)CC4)ccc32)CC1" ?
> 7.30

Same read-out for "Cc1nc(NC2CCN(Cc3ccc4c(cc(C#N)n4C[C@@H](C)N4CCN(S(C)(=O)=O)CC4)c3C)CC2)c2cc(CC(F)(F)F)sc2n1" ?
6.00 to 7.70

Same read-out for CNS(=O)(=O)N1CCN(C(C)Cn2c(C#N)cc3c(C)c(CN4CCC(Nc5ncnc6sc(CC(F)(F)F)cc56)CC4)ccc32)CC1 (stereo not drawn) ?
> 7.30

Same read-out for "CNS(=O)(=O)C1CCN([C@@H](C)Cn2c(C#N)cc3c(C)c(CN4CCC(Nc5nc(N)nc6sc(CC(F)(F)F)cc56)CC4)ccc32)CC1" ?
> 7.30

Same read-out for "Cc1c(CN2CCC(Nc3ncnc4sc(CC(F)(F)F)cc34)CC2)ccc2c1cc(C#N)n2C[C@H](C)N1CCN(S(=O)(=O)NCC(F)(F)F)CC1" ?
6.60 to 7.30

Same read-out for Cc1c(CN2CCC(Nc3ncnc4sc(CC(F)(F)F)cc34)CC2)ccc2c1cc(C#N)n2CC(C)N1C[C@@H](C)N(S(C)(=O)=O)[C@H](C)C1 (stereo partly drawn) ?
> 7.30

Same read-out for Cc1c(CN2CCC(Nc3ncnc4sc(CC(F)(F)F)cc34)CC2)ccc2c1cc(C#N)n2CC(C)N1CCC(S(C)(=O)=O)CC1 (stereo not drawn) ?
> 7.30

Same read-out for "Cc1c(CN2CCC(Nc3ncnc4sc(CC(F)(F)F)cc34)CC2)ccc2c1cc(C#N)n2C[C@H](C)N1CCN(C(=O)CC(F)(F)F)CC1" ?
6.60 to 7.30

Same read-out for "Cc1c(CN2CCC(Nc3nc(N)nc4sc(CC(F)(F)F)cc34)CC2)ccc2c1cc(C#N)n2C[C@@H](C)N1C[C@@H](C)N(S(C)(=O)=O)[C@H](C)C1" ?
6.60 to 7.30

Same read-out for Cc1c(CN2CCC(Nc3ncnc4sc(CC(F)(F)F)cc34)CC2)ccc2c1cc(C#N)n2CCN1CCN(S(C)(=O)=O)C(C)C1 (stereo not drawn) ?
6.60 to 7.30

Same read-out for Cc1c(CN2CCC(Nc3ncnc4sc(CC(F)(F)F)cc34)CC2)ccc2c1cc(C#N)n2CC(C(C)C)N1CCN(S(C)(=O)=O)CC1 (stereo not drawn) ?
6.00 to 7.70

Same read-out for "Cc1c(CN2CCC(Nc3ncnc4sc(CC(F)(F)F)cc34)CC2)ccc2c1cc(C#N)n2C[C@H](C)N1CCN(S(=O)(=O)C2CC2)CC1" ?
> 7.30

Same read-out for "Cc1c(CN2CCC(Nc3ncnc4sc(CC(F)(F)F)cc34)CC2)ccc2c1cc(C#N)n2CCNC(=O)COCCOCCNC(=O)OC(C)(C)C" ?
> 7.30

Same read-out for "Cc1c(CN2CCC(Nc3ncnc4sc(CC(F)(F)F)cc34)CC2)ccc2c1cc(C#N)n2C[C@H](C)N1CCN(C(=O)C2CC2)CC1" ?
6.60 to 7.30

Same read-out for "Cc1c(CN2CCC(Nc3nc(N)nc4sc(CC(F)(F)F)cc34)CC2)ccc2c1cc(C#N)n2C[C@H](C)N1CCN(S(=O)(=O)CCO)CC1" ?
> 7.30

Same read-out for Cc1c(CN2CCC(Nc3ncnc4sc(CC(F)(F)F)cc34)CC2)ccc2c1cc(C#N)n2CC(C)N1CCN(S(N)(=O)=O)CC1 (stereo not drawn) ?
6.60 to 7.30

Same read-out for "CNS(=O)(=O)N1CCN([C@H](C)Cn2c(C#N)cc3c(C)c(CN4CCC(Nc5ncnc6sc(CC(F)(F)F)cc56)CC4)ccc32)CC1" ?
6.00 to 7.70

Same read-out for "Cc1c(CN2CCC(Nc3ncnc4sc(CC(F)(F)F)cc34)CC2)ccc2c1cc(C#N)n2C[C@H](C)N1CCN(S(=O)(=O)NCCF)CC1" ?
> 7.30

Same read-out for "Cc1nc(NC2CCN(Cc3ccc4c(cc(C#N)n4C[C@H](C)N4CCN(CC(N)=O)CC4)c3C)CC2)c2cc(CC(F)(F)F)sc2n1" ?
> 7.30

Same read-out for "CNc1nc(NC2CCN(Cc3ccc4c(cc(C#N)n4C[C@H](C)N4C5CCC4CN(S(C)(=O)=O)C5)c3C)CC2)c2cc(CC(F)(F)F)sc2n1" ?
> 7.30
